- Test system: XF498
- ASSAY: NCI tumour cell line growth inhibition, 48 h
Calls of active or inactive are those of the source. Rule as the data show it: active = GI50 up to about 1.1 µM and inactive = higher.
Form entry, call: pick from true (1) = active, false (0) = inactive

How did this test come out for COC(=O)C1=C(C)N(NC(N)=O)C(C)(O)C12CCOC2=O (stereo not drawn) ?
false (0)

For CCN(c1n[n+]2c(-c3ccccc3)csc2s1)c1n[n+]2c(-c3ccccc3)csc2s1 , which call appears in the assay record?
false (0)

Hello, I am checking results. What call was entered for CNC(=O)C(C)C1CCC2(C)C=CC(=O)C(C)=C2C1O (stereo not drawn) ?
false (0)

Can you look up the reported call for COc1ccc(Br)c(CN2CCc3ccccc32)c1OS(=O)(=O)c1ccc(C)cc1 for me?
false (0)

Per the records of this test, what outcome belongs to COC(=O)N1C=Cc2c(c(C)c3c([nH]c4ccccc43)c2C)C1C (stereo not drawn) ?
false (0)

# fetch the recorded call for N#C/C(=C/c1ccco1)C(=O)c1ccccc1 here
false (0)

// param item: CC(=O)C1(O)Cc2c(O)c3c(c(O)c2C(OC2CC(N)C(O)C(C)O2)C1)C(=O)c1ccccc1C3=O (stereo not drawn) ; yields the recorded call
true (1)

What did the test return for Clc1ccc(OCc2nnc3n2N=C(c2ccccc2)CS3)cc1 ?
false (0)

====

- Tested on: A498
- ASSAY: NCI tumour cell line growth inhibition, 48 h
Activity calls are given as the source filed them. No stated cut-off is given here; in the data, active = GI50 up to about 1.1 µM and inactive = higher.
Outcome (select one): active, inactive

What call does the record list for Cc1ncc2c(n1)CCC1=C2OS(=O)(=O)CC1N(C)C (stereo not given) ?
inactive

Give the logged outcome of this assay for the following compound: COC(=O)Nc1nc2cc(S(=O)(=O)NC(CC(C)C)C(=O)OC)ccc2[nH]1 (stereo not given)
inactive

Tell me the recorded outcome of this test for CC(C)(C)OC(=O)NC(CSSCC(NC(=O)OC(C)(C)C)C(=O)O)C(=O)O (stereo not given) .
inactive

// param item: Nc1ccn(C2CC3OCC3O2)c(=O)n1 (stereo not given) ; yields the recorded call
inactive

Write down the call the test reported for this compound. Item: CCN(CC)CCNC(=O)c1cc2cc(NC(=O)c3cc4cc(NC(=O)c5cc6cc(N)ccc6[nH]5)ccc4[nH]3)ccc2[nH]1
inactive

Query: recorded result category for COC(=O)C1=C(O)c2cc3c(cc2[C@H](c2cc(OC)c(OC)c(OC)c2)C1)OCO3 in this test
inactive

Dear all, I need the recorded test outcome for Cc1c(NC(=S)N/N=C\C(=N/NC(=S)Nc2c(C)n(C)n(-c3ccccc3)c2=O)c2ccccc2)c(=O)n(-c2ccccc2)n1C , thank you.
inactive

For this compound, state the assay outcome: O=c1[nH]c2nc(S)nc(S)c2[nH]1
inactive

Status in this test for CC1(C)CCC2=C(O1)/C(=N\Nc1ccccc1)c1ccccc1C2=O ?
inactive

What call does the record list for O=C(NCc1ccc(Cl)c(Cl)c1)c1nc2ccccc2nc1NCc1ccc(Cl)c(Cl)c1 ?
inactive

Just curious, what result did COc1cc(CC2CC(c3ccc4c(c3)OCO4)OC2=O)cc(OC)c1OC (stereo not given) get here?
inactive

Please share the test call associated with NC(=O)Cn1c(=O)oc2cc(C(=O)CN3CCOCC3)ccc21 .
inactive

Would you mind telling me which call this test gave COc1cc2c(c(OC)c1OC)-c1ccc(SC)c(=O)cc1[C@@H](NC(=O)c1ccc(F)cc1)CC2 ?
active

// return assay outcome for COc1cc(C2SC(=N)Nc3c2c(C)nn3C(=O)c2ccccc2O)ccc1O (stereo not given)
inactive

Just curious, what result did COC(=O)CCc1cccnc1/C=N/O get here?
inactive

Tell me the recorded outcome of this test for CCOC(=O)c1[nH]c2ccccc2c1C(=O)C[C@H](NC(=O)C(F)(F)F)C(=O)OC .
inactive

Any idea what this test logged for CNC(=O)CNC(=O)N(C[C@@H]1CCCN1C(=O)[C@H](CC(C)C)NC(=O)OC(C)(C)C)C(C)C ?
inactive

GET /call?item= COc1ccc(/C=C2/SC(c3ccccc3)N(NC(=O)CCCCCCCCC(=O)NN3C(=O)/C(=C\c4ccc(OC)c(OC)c4)SC3c3ccccc3)C2=O)cc1OC (stereo not given) returns the recorded outcome of this test.
inactive

Hi team, can someone confirm the assay call for CCOP(=O)(/C=C/n1ccc(=O)[nH]c1=O)OCC ?
inactive

// return assay outcome for CN/N=C(/CC(=O)c1sc(-n2nc(-c3ccccc3)cc2-c2ccccc2)nc1C)C(=O)Nc1ccc(Cl)c(Cl)c1
inactive

====

- System: HCT-15
- ASSAY: NCI tumour cell line growth inhibition, 48 h
Hi there, I'd appreciate the recorded GI50 for every entry that follows.
Give your result in µM as a bare value.

// lookup GI50 for Clc1ccc(OCc2nnc3n2N=C(c2ccccc2)CS3)cc1
13.8

Reported GI50, compound O=c1cnnc2sc(=S)[nH]n12 : ____
19.6

// lookup GI50 for COc1ccc(/C=C2/SC(c3ccccc3)N(NC(=O)CCCCCCCCC(=O)NN3C(=O)/C(=C\c4ccc(OC)c(OC)c4)SC3c3ccccc3)C2=O)cc1OC (configuration not stated)
55.2

Quick one: GI50 for COc1ccc(-c2cc(O)c3cc4c(cc3n2)OCO4)c(OC)c1 ?
38.9

====

- System: EKVX
- ASSAY: NCI tumour cell line growth inhibition, 48 h
Active and inactive are the calls of the source. No stated cut-off is given here; in the data, active = GI50 up to about 1.1 µM and inactive = higher.
READOUT_TYPE: GI50

Would you kindly share the measured GI50 for CCOC(=O)/C=C(\C(=O)OCC)n1ccc(=O)n(Cc2cnnn2CCCCOC(C)=O)c1=O ?
11 µM (inactive)

Which GI50 is reported for this molecule? O=C(O)c1ccccc1NCn1c(=S)sc2ccccc21
> 100 µM (inactive)

Request the reported GI50 associated with CC(C)(C)OC(=O)NC(CSSCC(NC(=O)OC(C)(C)C)C(=O)O)C(=O)O (stereo not given)
> 100 µM (inactive)

Given the entry N#CC1=C(Cl)NC(Cl)=C(C#N)C1c1ccc(Cl)cc1 , report its measured GI50.
19.5 µM (inactive)

Consider the molecule shown here: COC(=O)C#CCC1CCCC1C1SCCS1 (stereo not given) What is its recorded GI50?
> 100 µM (inactive)

Endpoint output: GI50 of COC(=O)[C@@]12C(=O)C=CC(=O)[C@@H]1C1C(=CC2COC(C)=O)O[C@@H]2OC3(CCCCC3)O[C@H]12 (stereo not given in full) . Value?
15.4 µM (inactive)

For the molecule COc1ccc(Cc2cc(OC)c(OC)c(OC)c2)cc1O , what GI50 is on record?
24.7 µM (inactive)

Field request: GI50 | item: O=[N+]([O-])c1ccc(NS(=O)(=O)C(F)(F)F)cc1
> 100 µM (inactive)

Any idea what its GI50 is? The molecule is COC(=O)Nc1nc2cc(S(=O)(=O)NC(CC(C)C)C(=O)OC)ccc2[nH]1 (stereo not given)
3.93 µM (inactive)

For the molecule shown here, O=C(NCc1ccc(Cl)c(Cl)c1)c1nc2ccccc2nc1NCc1ccc(Cl)c(Cl)c1 , give the reported GI50.
> 100 µM (inactive)

====

- System: HCC 2998
- ASSAY: NCI tumour cell line growth inhibition, 48 h
Active and inactive are the calls of the source. Rule as the data show it: active = GI50 up to about 1.1 µM and inactive = higher.
In this exercise, the only acceptable responses are active, inactive

Recorded call for CN1c2ccccc2N(C(=O)c2ccc([N+](=O)[O-])cc2)C(CC(=O)O)c2cccn21 (stereo unspecified) ?
inactive

How was COC(=O)c1s/c(=N\C(=S)N(C)C)n(-c2ccccc2)c1C(=O)OC classified in this test?
inactive

Fill in: this test's call for CC1(c2ccc(Cl)cc2)C=C(c2ccc(Cl)cc2)C(C#N)=C(C(C#N)C#N)N1.CNC (stereo unspecified) is ___
inactive

How did this test come out for COc1ccc2c(c1)C(N)=C(c1ccccc1OC)C2=O ?
inactive

Name the outcome recorded for CC1=NN(C(=O)c2ccccc2O)C(=O)/C1=C/c1ccc(O)cc1 in the assay.
inactive

Call for entry C=C1C(=O)O[C@H]2[C@H]3O[C@@H](C[C@@H]12)[C@](C)(O)CCCC(C)=CCC[C@H]3C :
inactive

Per the assay record, what outcome was assigned to CCOC(=O)c1sc2c(c1OC(=O)c1ccc(OC)cc1)c(=O)n(-c1ccccc1)c(=S)n2-c1ccccc1 ?
inactive

Hi team, can someone confirm the assay call for COc1ccc(Oc2ccc3cc4c(cc3c2O)OCO4)c2cc(C)oc12 ?
inactive

Please let me know the test result on file for COC(=O)[C@]12C3=C(O)C(=O)C[C@H]1OC[C@H]2C=CC3 .
inactive

Name the outcome recorded for CC(C(=O)O)c1ccc(-c2ccccc2)c(F)c1 (stereo unspecified) in the assay.
inactive

Could you check what this test reported for COC(=O)C(Cc1ccccc1)NC(=O)C(CNC(=O)OCc1ccccc1)C(=O)OCc1ccccc1 (stereo unspecified) ?
inactive

How did this test come out for NNC(=S)NCCNC(=S)NN ?
inactive

Recorded test outcome, item COc1cc2c(c(OC)c1OC)-c1ccc(SC)c(=O)cc1[C@@H](NC(=O)c1ccc(F)cc1)CC2
active

Which outcome was entered for the compound CS(=O)(=O)N/N=C/CN1C(=O)c2ccccc2C1=O in this test?
inactive

Fill in: this test's call for O=C(O)CCCCCCC[C@H]1S[C@H]1CCCCCCO is ___
inactive

Test call for this compound, please: CC12CCC([C@H](C(O)C3CCCCC3)C1=O)C2(C)C (stereo partly specified)
inactive

Hi team, can someone confirm the assay call for Oc1ccccc1/C=N/N1C(=S)N(C23CC4CC(CC(C4)C2)C3)C(=N\c2ccccc2)/C1=N/c1ccccc1 ?
inactive

Record lookup: outcome of this test for CC1C(/C=C/c2ccoc2)ON2CCCC12 (stereo unspecified) ?
inactive

Please indicate how the test categorized CC(C)C1(O)C(=O)N(c2c(F)c(F)c(F)c(F)c2F)C(=S)N1CCSc1ccccc1 (stereo unspecified) .
inactive

How did this test come out for Cc1c(C(=O)/C=C/c2ccccc2)[n+]([O-])c2ccccc2[n+]1[O-] ?
inactive

Just curious, what result did C=C1c2nc3ccccc3n2C=C(c2ccc(OC)cc2)N1c1ccc(OC)cc1 get here?
inactive

Hello, I am checking results. What call was entered for COC(=O)C1=C(O)c2cc3c(cc2[C@H](c2cc(OC)c(OC)c(OC)c2)C1)OCO3 ?
inactive

GET /call?item= COC(=O)C1OC2(CCCC3CC32)O[C@H]1C(=O)OC (stereo partly specified) returns the recorded outcome of this test.
inactive

Outcome logged for CO[C@H]1c2cccc3cccc(c23)[C@@H]1n1[nH]c(=O)n(C(C)(C)C)c1=O in this assay:
inactive

So what was the verdict on O=c1ccn(C2OC(COC3CCCCO3)C(OC3CCCCO3)C2OC2CCCCO2)c(=O)n1-c1ccccc1 (stereo unspecified) in this test?
inactive

For this compound, state the assay outcome: O=C(Nc1ccn(C2CC(O)C(COC(c3ccccc3)(c3ccccc3)c3ccccc3)O2)c(=O)n1)c1ccccc1 (stereo unspecified)
inactive

Name the outcome recorded for NC(CCCCNCc1ccccc1)C(=O)O (stereo unspecified) in the assay.
inactive

For O=C(CC1=NCCN1)c1ccccc1 , what call appears in the results of this test?
inactive

Hi, sorry to bother you, what did the test record for Cc1ccc(/C=C2\CCCC\C2=N\O)cc1 ?
inactive

Dear colleague, could you share the recorded outcome for CCN(CC)c1ccc2cc(-c3nnc(-c4ccccc4)o3)c(=O)oc2c1 when you have a moment?
inactive

Assay result, entry O=c1cnnc2sc(=S)[nH]n12 — outcome?
inactive

For CC1NOC(=O)C1/N=N/c1ccccc1Br (stereo unspecified) , what call appears in the results of this test?
inactive

Given c1cn(C23C4C5C6C4C2C6C53)cn1 (stereo unspecified) , state the outcome it received in this test.
inactive

Entry CCCCCCCCCCCCCCCCP(=O)([O-])OCC[N+](C)(C)C : call = ?
inactive

Identify the outcome logged in this assay for the compound shown: O=C1/C(=C/c2ccc(Cl)cc2)N=C(c2ccccc2)N1c1nc2ccc(Sc3ccccc3)cc2[nH]1
inactive

Look up the recorded call for COc1ccc(/C=C(\C2=NC(=O)CS2)c2nc3ccccc3[nH]2)cc1 in this test.
active

What did the test return for O=C1/C(=C/c2ccc(Cl)cc2)Oc2cc(O)ccc21 [6-HYDROXY-4'-CHLORO AURONE] ?
inactive

# fetch the recorded call for COc1ccc2nc3cc(Cl)ccc3c(NCCNCCCNC(=O)c3cc(-c4ccccc4)nc4ccccc34)c2c1 here
inactive

Outcome logged for Oc1c(C2=NNC(c3ccc(Cl)cc3Cl)C2)ccc2ccccc12 (stereo unspecified) in this assay:
inactive

Could you check what this test reported for COc1nc(C(=O)NNC(=O)c2nc(OC)c3ccccc3c2-c2ccccc2)c(-c2ccccc2)c2ccccc12 ?
inactive

Lab log entry: O=C1NC2CCCCCC2C12CCCCC2 (stereo unspecified) — outcome as called in the assay?
inactive
